# Target: human cloned somatostatin receptor 3 (human) (UniProt P32745)
# Sequence (P32745 whole entry): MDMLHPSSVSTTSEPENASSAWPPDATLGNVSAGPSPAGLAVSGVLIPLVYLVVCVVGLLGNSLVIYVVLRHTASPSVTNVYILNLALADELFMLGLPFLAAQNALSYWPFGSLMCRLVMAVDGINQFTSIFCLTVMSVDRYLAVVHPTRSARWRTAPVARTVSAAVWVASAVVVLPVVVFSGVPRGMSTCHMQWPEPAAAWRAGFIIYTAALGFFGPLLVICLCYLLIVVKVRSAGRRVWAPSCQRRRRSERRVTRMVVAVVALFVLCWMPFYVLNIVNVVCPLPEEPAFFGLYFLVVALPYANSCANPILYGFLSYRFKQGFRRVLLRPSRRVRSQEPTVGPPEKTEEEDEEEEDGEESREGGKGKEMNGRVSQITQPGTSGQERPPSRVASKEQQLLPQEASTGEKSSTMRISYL
# Assay Method Text: 125I-Tyr11-SRIF-14 displacement
*1 amine or outer side, *2 acyl side, *3 side chain or, on linkers, in order; H or OH if unused. Bridges are numbered along the chain shown (N, C = ends). [ ]: non-standard residue; d: D form. The star is where a group is joined. DOTA = O=C(O)CN1CCN(CC(=O)O)CCN(CC(=O)*)CCN(CC(=O)O)CC1; N(2-mercaptoethyl)Gly = O=C(CN(CCS[*:3])[*:1])[*:2]; Aoc = NCCCCCCCC(=O)O
Assay Metric: % displacement at 1 nM (%)

Binder	Assay Metric	Measurement
H-XRCF[dW]KTY[N(2-mercaptoethyl)Gly]-NH2 (disulfide 3-9; not fully specified (residue 1); printed as H-Phe1-Arg2-Cys3-Phe4-D-Trp5-Lys6-Thr7-Tyr8-NTEG9-NH2 (cyclo 3-9)) [SEQ ID NO: 26]	% displacement at 1 nM	53
{DOTA}-F[dF]RCF[dW]KTF[N(2-mercaptoethyl)Gly]-NH2 (disulfide 4-10; SMILES C[C@@H](O)[C@@H]1NC(=O)[C@H](CCCCN)NC(=O)[C@@H](Cc2c[nH]c3ccccc23)NC(=O)[C@H](Cc2ccccc2)NC(=O)[C@@H](NC(=O)[C@H](CCCNC(=N)N)NC(=O)[C@@H](Cc2ccccc2)NC(=O)[C@H](Cc2ccccc2)NC(=O)CN2CCN(CC(=O)O)CCN(CC(=O)O)CCN(CC(=O)O)CC2)CSSCCN(CC(N)=O)C(=O)[C@H](Cc2ccccc2)NC1=O) [SEQ ID NO: 20]	% displacement at 1 nM	66
{DOTA-Aoc}-[dF]RCF[dW]KTF[N(2-mercaptoethyl)Gly]-NH2 (disulfide 3-9) [SEQ ID NO: 15]	% displacement at 1 nM	49

Value source: patent US20240165282A1
